Measured values drawn from PubChem BioAssay for this set.

I'd be grateful if you could share measured cytochrome c release ratio for these entries.
# experiment description: blockers of cytochrome c efflux from mitochondria – biochemical, purified mitochondria (AID 1603);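 note: mouse liver mitochondria challenged with calcium chloride; signal normalized to the plate average as 100%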
# test parameters: stronger effect = lower value
Peptide text beside a SMILES is read from it.

The compound listed as CCC[C@@H]1C[C@@H](C(=O)NC(C(C)Cl)C2O[C@H](SC)[C@H](O)[C@@H](O)[C@H]2O)N(C)C1 (stereo partly specified) has a reported cytochrome c release ratio of 1.11

# compound CC(=O)OCC(=O)[C@@]1(O)CC[C@H]2C3CCC4=CC(=O)CCC4(C)[C@@]3(F)[C@@H](O)CC21C (stereo partly specified) ; its cytochrome c release ratio = 0.71

Reported cytochrome c release ratio ( CC(=O)Oc1ccc2c(c1)CCC1C2CCC2(C)C(=O)CCC12 (stereo unspecified) ) = 0.81

Short answer for CC[C@@]1(O)C[C@H](OC2CC(N(C)C)C(OC3CC(O)C(OC4CCC(=O)C(C)O4)C(C)O3)C(C)O2)c2c(cc3c(c2O)C(=O)c2c(O)cccc2C3=O)[C@H]1C(=O)OC (stereo partly specified) : cytochrome c release ratio was 4.02

Entry under test: NC[C@@H]1O[C@H](O[C@@H]2[C@@H](CO)OC(O[C@@H]3[C@@H](O)[C@H](N)C[C@H](N)[C@H]3OC3O[C@H](CO)[C@@H](O)[C@H](O)[C@H]3N)[C@@H]2O)[C@H](N)[C@@H](O)[C@@H]1O (stereo partly specified) . Its cytochrome c release ratio was 1.36

Lab note: measured cytochrome c release ratio of COc1ccc(CCC(=O)c2c(O)cc(O[C@@H]3O[C@H](CO)C(O)[C@H](O)C3O[C@@H]3O[C@@H](C)[C@H](O)[C@@H](O)[C@H]3O)cc2O)cc1O (stereo partly specified) was 1.1

cytochrome c release ratio recorded for this compound, O=c1c(O)cc2c(O)oc3c(=O)c(O)cc4c3c2c1CC=4O , is 1.61

Given item CC(CNC(=O)c1ccccc1)C(=O)OCC(=O)[C@@]12OC(C)(C)O[C@@H]1CC1C3CCC4=CC(=O)C=C[C@]4(C)[C@@]3(F)[C@@H](O)C[C@@]12C (stereo partly specified) , the value recorded as its cytochrome c release ratio is 0.92

Please fill in: cytochrome c release ratio reported for COc1cccc(C(=O)c2ccccc2O)c1O = 1.59

Value of cytochrome c release ratio reported for the compound NCC1CCC(N)C(OC2C(N)CC(N)C(OC3OC(CO)C(O)C(N)C3O)C2O)O1 (stereo unspecified) is 0.86

Briefly, cytochrome c release ratio measured for CCCCCCCCCCCCCCCCCC(=O)OC(CC(=O)O)C[N+](C)(C)C (stereo unspecified) : 4.04

Lab note: CC1CC2C3CCC4=CC(=O)C=CC4(C)[C@@]3(F)C(O)CC2(C)[C@@]1(O)C(=O)CO (stereo partly specified) gave cytochrome c release ratio of 1.12

Record O[N+]1=CC=CCC1=S.On1ccccc1=S.[Zn] , field cytochrome c release ratio: 1.27

Query NCCCCC(N)C(=O)NCC(=O)NC(Cc1cnc[nH]1)C(=O)NC(CCCCN)C(=O)O (stereo unspecified) (H-KGHK-OH; configuration not given here) yields cytochrome c release ratio of 0.86

Entry under test: CC[C@]12CCCN3CCc4c(n(c5ccccc45)[C@](O)(C(=O)OC)C1)[C@@H]32 . Its cytochrome c release ratio was 1.05

Recorded cytochrome c release ratio (compound C[C@]12CCC3c4ccc(OC(=O)CCC(=O)O)cc4CCC3C1CCC2=O (stereo partly specified) ): 0.83
